# credit: PubChem BioAssay AID743373

molecular target: Galactokinase (Homo sapiens) (UniProt P51570); experiment: qHTS for Inhibitors of Human Galactokinase (GALK): Confirmation Assay for SAR round 4; conditions: recombinant GALK, ADP-Glo luminescence, 1 h; series mostly up to 57.5 µM
Sequence (P51570 whole entry, looked up): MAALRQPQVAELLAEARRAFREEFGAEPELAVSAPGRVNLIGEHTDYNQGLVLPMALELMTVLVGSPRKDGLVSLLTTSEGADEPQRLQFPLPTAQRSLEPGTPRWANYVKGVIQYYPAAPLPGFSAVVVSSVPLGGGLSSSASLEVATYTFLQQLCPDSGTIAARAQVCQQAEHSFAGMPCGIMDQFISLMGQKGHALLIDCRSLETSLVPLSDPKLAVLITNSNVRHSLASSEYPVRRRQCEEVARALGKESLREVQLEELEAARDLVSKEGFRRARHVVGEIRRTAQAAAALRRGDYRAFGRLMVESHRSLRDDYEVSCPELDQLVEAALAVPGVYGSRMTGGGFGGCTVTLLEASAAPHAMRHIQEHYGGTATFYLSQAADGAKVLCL
Inconclusive results are not listed. Activity calls are given as the source filed them. The call rests on the fitted dose curve; in most records, active means well fitted inhibition curve with a large enough effect; inconclusive means small, poorly fitted or top-dose-only effect; inactive means flat fitted curve, though single readings scatter.
Outcome (select one): active, inactive

Record excerpt, results attached:
O=C1CCCC2=C1C(c1ccncc1Cl)N=C(Nc1nc3ccccc3o1)N2 (configuration not stated)	active
O=C1C2=C(CN1c1ccccc1)NC(Nc1nc3ccccc3o1)=NC2c1ccccc1Cl (configuration not stated)	inactive
CC1=C(C(=O)NC2CCCC2)C(c2[nH]ncc2Cl)N=C(Nc2nc3ccccc3o2)N1 (configuration not stated)	inactive

Could you check what this test reported for O=C1CCCC2=C1C(c1ccccc1Cl)N=C(Nc1nc3ccccc3o1)N2 (configuration not stated) ?
active

Could you check what this test reported for CC1=C(C(=O)Nc2noc3ccccc23)C(c2nn(C)cc2Cl)N=C(Nc2nc3ccccc3o2)N1 (configuration not stated) ?
inactive

Could you check what this test reported for CC1=C(C(=O)Nc2nc3ccccc3s2)C(c2nn(C)cc2Cl)N=C(Nc2nc3ccccc3o2)N1 (configuration not stated) ?
inactive

Could you check what this test reported for O=C1CCCC2=C1C(c1ccccc1Br)N=C(Nc1nc3ccccc3o1)N2 (configuration not stated) ?
active
